System: YT (IL-2 2.5 ng/mL)
experiment: percent inhibition of viability; higher = more inhibition;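 also: normalised to DMSO-only wells as negative and benzethonium chloride as positive control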
experimental.parameters: 72 h; 1000 nM
metric: percent inhibition of viability (%)
Numbers only, in %.

• Cc1nc(Nc2ncc(C(=O)Nc3c(C)cccc3Cl)s2)cc(N2CCN(CCO)CC2)n1 [Dasatinib] (max concentration tested 1000 nM) = 39.6
• CC[C@H](CO)Nc1nc(NCc2ccccc2)c2ncn(C(C)C)c2n1 [Seliciclib] (max concentration tested 10000 nM) = 9.31
• O[C@H]1CC[C@H](Nc2ncc3nc(Nc4c(F)cc(F)cc4F)n([C@H]4CCOC4)c3n2)CC1 [Tanzisertib] (max concentration tested 10000 nM) = 4.44
• COc1ccc(COc2cc3oc(=O)c4cc(C(C)O)ccc4c3cc2OC)cc1 (stereo unspecified) [Palomid-529] (max concentration tested 10000 nM) = 12.3
• C/C(=C\c1csc(C)n1)[C@@H]1C[C@@H]2O[C@]2(C)CCC[C@H](C)[C@H](O)[C@@H](C)C(=O)C(C)(C)[C@@H](O)CC(=O)N1 [Ixabepilone] (max concentration tested 1000 nM) = 92.3

Now examine the next entry.
I would be grateful if you could share the reported percent inhibition of viability for Nc1ccn([C@@H]2O[C@H](CO)[C@@H](O)C2(F)F)c(=O)n1 [Gemcitabine] (max concentration tested 1000 nM) . 65
